# test-summary: probe aXIP binding to arrayed compounds – biochemical, NeuroSMM set, 635/667 nm fluorescence, primary screen (AID 1119);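 also: probe is the protein aXip251-270 applied at 1 µg/mL to compound-printed slides; binding of probe to printed compounds measured as 667 nm fluorescence plus signal to noise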
# condition: small-molecule microarray, higher = more signal, called active from +8 up or from −8 down
Outcome: 1 (yes) for composite Z-score of at least 0.05; 0 (no) for anything lower.

Known results for compounds:
CC(C)(C)OC(=O)CC[C@]1(C(=O)NCCN2CCOCC2)COC(c2ccc(OCCCO)cc2)=N1 | 1 (yes)
C=CCOC(=O)[C@H]1[C@@H]2C(=O)O[C@@H](c3ccccc3)[C@@H](c3ccccc3)N2[C@@H](c2ccc(OCCOC(=O)[C@@H]3C[C@@H]4C(=O)N5CCC[C@H]5C(=O)N4[C@@H]3c3cccc(OCCO)c3)cc2)[C@]12C(=O)Nc1ccc(I)cc12 | 1 (yes)
C=C(CCCC)/C(=C/C[C@@H](OC(C)=O)c1cccc(OCCO)c1)c1cnc2ccccc2c1 | 1 (yes)
C=C[C@H](C)[C@@H](OC(=O)Nc1ccc(SC)cc1)c1ccc(O)c2ccccc12 | 0 (no)

Decide: is the reported value of composite Z-score for COc1ccc([Si](C)(C)[C@@H]2[C@@H](CCO)O[C@]3(C(=O)N(Cc4cccc(N5CCOC5=O)c4)c4ccccc43)[C@H]2C)cc1 equal to or greater than 0.05?
0 (no)

Decide: is the reported value of composite Z-score for COc1ccc(C(=O)Nc2ccc(CN3C(=O)[C@]4(O[C@H](CC(=O)N5CCC[C@H]5CO)[C@@H]([Si](C)(C)c5ccc(OC)cc5)[C@@H]4C)c4ccccc43)cc2)cc1 equal to or greater than 0.05?
1 (yes)

###

// reported z-score for each item listed
# test-summary: JC-1 mitochondrial signal, unstimulated myeloma cells – cell-based, JC-1 fluorescence, RPMI8226, 24 h, 100 nL compound, profiling panel (AID 1169); also: test concentration not given here
# condition: JC-1 mitochondrial potential fluorescence, higher = more signal
Lab note: jot down the number only; don't add units.

Below, each entry is followed by its recorded z-score result.
COc1ccccc1CN1C(=O)c2ccccc2[C@@H](C(=O)NCc2ccccc2)[C@@H]1c1ccc(CO)cc1 | -0.288
CN1C(=O)C2C=CC(C(O)C=Cc3ccc([N+](=O)[O-])cc3)N(Nc3ccccc3)C2C1=O (centres undefined) | -0.634
COC(=O)C(CC#Cc1ccc2c(c1)[C@]1(C(=O)N2)[C@H](c2ccc(O)cc2)N2[C@H](c3ccccc3)[C@H](c3ccccc3)OC(=O)[C@H]2[C@@H]1C(=O)N1CCN(c2ncccn2)CC1)C(=O)OC | -1.07

Alright, here's another compound for you.
Sure, the documented z-score for O=C1NC(=O)C2C1C=CC(C(O)C1CC=CCC1)N2Nc1ccccn1 (centres undefined) is -0.074

###

# test-summary: FRG1 expression reporter modulators in myotubes – cell-based, C2C12 myotubes, firefly/Renilla luciferase, luminescence, FRG1 inhibition for FSHD, primary screen (AID 1084)
# condition: FRG1 promoter luciferase, higher = more signal, called active from +8 up or from −8 down
recorded-metric: z-score
Lab note: jot down the number only; don't add units.

Below, each entry is followed by its recorded z-score result.
C[N+](C)(C)CCCCCCNC(=O)[C@H]1C[C@H]2C(=O)N[C@@H](Cc3ccccc3)C(=O)N2[C@H]1c1cccc(OCCO)c1 | 3.64
CC1CC/C=C\[C@H]2OC34C=CCN(Cn5nnc6ccccc65)C(=O)[C@H]3N(CCCCCO)C(=O)[C@@H]4C2C(=O)O1 (stereo partly drawn) | -0.373
C=CC[C@]1(C(=O)NCc2ccccc2)N=C(c2ccc(OCCCO)cc2)O[C@H]1c1ccccc1CN=[N+]=[N-] | -2.43
C=CCOC(=O)[C@H]1[C@@H]2C(=O)O[C@@H](c3ccccc3)[C@@H](c3ccccc3)N2[C@@H](c2ccc(OCCOC(=O)[C@@H]3C[C@@H]4C(=O)N5CCC[C@H]5C(=O)N4[C@@H]3c3cccc(OCCO)c3)cc2)[C@]12C(=O)Nc1ccc(I)cc12 | 0.984
CCOC(=O)C[C@H]1[C@H](OC(=O)c2ccc(-c3ccccc3)cc2)[C@@H](NC(=O)c2ccccc2)c2cc(OCCCO)ccc2N1C(=O)c1ccc2ccccc2n1 | 1.22
[N-]=[N+]=Nc1ccccc1C[C@@]1(C(=O)N2CCCCC2)N=C(c2ccc(OCCCO)cc2)O[C@@H]1c1ccccc1N=[N+]=[N-] | -2.04
NCCCCCNC(=O)[C@H]1C[C@H]2C(=O)N[C@@H](Cc3ccccc3)C(=O)N2[C@H]1c1cccc(OCCO)c1 | 1.27
COc1ccc(NN2C(C(O)c3ccc(N(C)C)cc3)C=CC3C(=O)N(C4CCCCC4)C(=O)C32)cc1 (stereo not drawn) | 0.613

Sure, the documented z-score for COC(=O)[C@@]1(Cc2ccc(OC)cc2)[C@H]2c3cc(C(=O)N4CCCC4)n(CCCNc4ncc(C(F)(F)F)cc4Cl)c3C[C@H]2CN1C(=O)c1ccccc1 is 2.95

Sure, the documented z-score for O=C1O[C@@H](c2ccccc2)[C@@H](c2ccccc2)N2[C@@H](c3ccccc3OCCO)[C@]3(C(=O)Nc4ccc(C#CC5(O)CCCCCC5)cc43)[C@@H](C(=O)N3CCN(c4ncccn4)CC3)[C@H]12 is -2.4

Sure, the documented z-score for O=C(CS)NCCCCCNC(=O)[C@@H]1C[C@@H]2C(=O)NCC(=O)N2[C@@H]1c1ccc(O)cc1 is 0.111

Sure, the documented z-score for NC(=O)NCC#Cc1ccc2c(c1)[C@]1(C(=O)N2)[C@H](C(=O)O)[C@H]2C(=O)O[C@H](c3ccccc3)[C@H](c3ccccc3)N2[C@@H]1c1ccc(O)cc1 is 1.5

Sure, the documented z-score for OCCCC1=CC(C2CC2)N(Cc2cccc(OC(F)(F)F)c2)CC1 (stereo not drawn) is 0.606
